# System: SK-OV-3 ovarian
# test: NCI tumour cell line growth inhibition, 48 h; in the data active = GI50 below about 0.43 µM; inactive = the rest
# output must be one of 1.0 (active), 0.0 (inactive)

{"compound": "C=CCNCCCN1C(=O)c2ccc3c4c(ccc(c24)C1=O)C(=O)N(CCCNCC=C)C3=O", "system_name": "SK-OV-3 ovarian", "label": 0.0}
{"compound": "COc1ccc2c(c1)c(-c1nc(-c3c[nH]c4ncccc34)cs1)cn2CCCCN1CCOCC1", "system_name": "SK-OV-3 ovarian", "label": 0.0}
{"compound": "C=CC1=C[C@@H]2[C@@H]3O[C@]4(CC[C@H](O4)[C@@H](C)C[C@@H](O)C3=O)C[C@H](O)C3=NCC[C@@]32CC1", "system_name": "SK-OV-3 ovarian", "label": 1.0}
{"compound": "COc1ccc(-c2cc(-c3ccccc3)nc(N3CCN(CCNc4ccnc5cc(Cl)ccc45)CC3)n2)cc1", "system_name": "SK-OV-3 ovarian", "label": 0.0}
{"compound": "COc1ccn2c(C(C)=O)cc(C(=O)c3ccc4c(c3)Sc3ccccc3N4)c2c1", "system_name": "SK-OV-3 ovarian", "label": 1.0}

What classification did CCN(CCNc1ccc(C)c2sc3cc(Cl)ccc3c(=O)c12)CC(C)O (stereo not drawn) end up with in this test?
0.0

For C[C@H]1[C@H](C)CC[C@]2(C(=O)N3CCN(C)CC3)CC[C@]3(C)C(=CC[C@@H]4[C@@]5(C)C/C(=C/c6cccnc6)C(=O)C(C)(C)[C@@H]5CC[C@]43C)[C@H]12 then?
0.0

Next up: O=C1CC(c2ccc3c(c2)OCO3)Nc2cc3c(cc21)OCO3 (stereo not drawn)
0.0

Hello, the source for this data is PubChem BioAssay (NCI), in case you need it.
